Test system: XIP peptide (Xip251-270) binding
test details: XIP fragment 251-270 binding compounds – biochemical, small-molecule microarray, fluorescence 635/667 nm, 0.1 µg/mL protein, primary screen (AID 1182)
measurement context: fluorescent protein binding, 635 nm, higher = more signal, called active from +8 up or from −8 down
observable: composite z-score
// response body must contain only the number

These recorded examples may help you get a feel for the data.
mol smiles	composite z-score
[N-]=[N+]=NCc1ccccc1[C@H]1OC(c2ccc(OCCCO)cc2)=N[C@@]1(Cc1ccccc1)C(=O)O	0.419
COCCOC(=O)N1C(=O)[C@@]2(c3cc(C#CCCO)ccc31)[C@H](C(=O)NC[C@H](O)c1ccccc1)[C@H]1C(=O)O[C@H](c3ccccc3)[C@H](c3ccccc3)N1[C@@H]2c1ccc(OCCO)cc1	-0.0001

Now consider the entry below.
Task item: Look up and state reported composite z-score for "COC(=O)[C@@]1(Cc2ccc(OC)cc2)[C@H]2c3cc(C(=O)N(C)C)n(Cc4ccc(OC)c(OC)c4)c3C[C@H]2CN1C(=O)c1ccccc1"
Reply: 0.811
